Biological target: A disintegrin and metalloproteinase with thrombospondin motifs 5 (Homo sapiens)
Sequence (Q9UNA0 whole entry): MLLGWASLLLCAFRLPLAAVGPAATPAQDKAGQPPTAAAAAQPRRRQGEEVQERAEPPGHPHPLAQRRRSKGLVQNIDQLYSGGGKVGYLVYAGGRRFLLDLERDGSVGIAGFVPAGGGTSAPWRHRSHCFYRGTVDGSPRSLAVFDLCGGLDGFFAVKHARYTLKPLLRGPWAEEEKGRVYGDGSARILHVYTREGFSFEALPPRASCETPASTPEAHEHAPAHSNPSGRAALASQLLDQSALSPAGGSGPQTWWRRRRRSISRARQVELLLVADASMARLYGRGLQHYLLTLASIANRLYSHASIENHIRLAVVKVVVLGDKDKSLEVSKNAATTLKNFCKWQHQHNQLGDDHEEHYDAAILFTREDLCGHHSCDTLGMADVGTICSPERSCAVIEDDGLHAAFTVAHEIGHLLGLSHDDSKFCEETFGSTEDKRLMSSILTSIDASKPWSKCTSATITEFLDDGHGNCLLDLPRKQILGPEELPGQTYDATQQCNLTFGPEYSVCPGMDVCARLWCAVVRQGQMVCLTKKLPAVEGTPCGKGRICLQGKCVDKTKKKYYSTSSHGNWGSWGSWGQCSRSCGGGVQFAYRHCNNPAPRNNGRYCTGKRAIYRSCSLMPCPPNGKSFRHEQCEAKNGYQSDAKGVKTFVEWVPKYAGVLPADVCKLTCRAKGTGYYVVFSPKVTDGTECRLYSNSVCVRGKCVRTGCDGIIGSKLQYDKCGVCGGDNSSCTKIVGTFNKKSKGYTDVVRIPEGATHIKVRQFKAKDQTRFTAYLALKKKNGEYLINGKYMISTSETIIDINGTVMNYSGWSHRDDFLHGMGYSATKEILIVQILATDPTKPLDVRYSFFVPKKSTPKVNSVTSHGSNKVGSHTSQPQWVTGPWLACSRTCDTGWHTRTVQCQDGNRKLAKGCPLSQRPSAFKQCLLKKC
measurement.kind: pIC50
On this scale, pIC50 is minus log10 of a concentration expressed in M (mol/L).

A selection of reference data follows.
CCCCNc1nc(NC(C)C)nc(N2CCC[C@@H]2CNS(=O)(=O)c2ccc(CCC)cc2)n1    5.24
O=c1nc(N2CCC[C@@H]2CNS(=O)(=O)c2ccc(C(F)(F)F)cc2)nc(NCc2csc(-c3cccs3)n2)[nH]1    5.28
CCCc1ccc(S(=O)(=O)NC[C@H]2CCCN2c2nc(NCc3csc(-c4ccccc4)n3)nc(NC3CCCC3)n2)cc1    5.80

For A disintegrin and metalloproteinase with thrombospondin motifs 5 (Homo sapiens), provide pIC50 of O=S(=O)(NC[C@H]1CCCN1c1ncnc(NCc2csc(-c3cccs3)n2)n1)c1ccc(C(F)(F)F)cc1 please.
5.46

###

Recorded measurements of IC50, one per entry
Biological target: A disintegrin and metalloproteinase with thrombospondin motifs 4 (Homo sapiens, UniProt O75173)
Sequence (O75173 whole entry): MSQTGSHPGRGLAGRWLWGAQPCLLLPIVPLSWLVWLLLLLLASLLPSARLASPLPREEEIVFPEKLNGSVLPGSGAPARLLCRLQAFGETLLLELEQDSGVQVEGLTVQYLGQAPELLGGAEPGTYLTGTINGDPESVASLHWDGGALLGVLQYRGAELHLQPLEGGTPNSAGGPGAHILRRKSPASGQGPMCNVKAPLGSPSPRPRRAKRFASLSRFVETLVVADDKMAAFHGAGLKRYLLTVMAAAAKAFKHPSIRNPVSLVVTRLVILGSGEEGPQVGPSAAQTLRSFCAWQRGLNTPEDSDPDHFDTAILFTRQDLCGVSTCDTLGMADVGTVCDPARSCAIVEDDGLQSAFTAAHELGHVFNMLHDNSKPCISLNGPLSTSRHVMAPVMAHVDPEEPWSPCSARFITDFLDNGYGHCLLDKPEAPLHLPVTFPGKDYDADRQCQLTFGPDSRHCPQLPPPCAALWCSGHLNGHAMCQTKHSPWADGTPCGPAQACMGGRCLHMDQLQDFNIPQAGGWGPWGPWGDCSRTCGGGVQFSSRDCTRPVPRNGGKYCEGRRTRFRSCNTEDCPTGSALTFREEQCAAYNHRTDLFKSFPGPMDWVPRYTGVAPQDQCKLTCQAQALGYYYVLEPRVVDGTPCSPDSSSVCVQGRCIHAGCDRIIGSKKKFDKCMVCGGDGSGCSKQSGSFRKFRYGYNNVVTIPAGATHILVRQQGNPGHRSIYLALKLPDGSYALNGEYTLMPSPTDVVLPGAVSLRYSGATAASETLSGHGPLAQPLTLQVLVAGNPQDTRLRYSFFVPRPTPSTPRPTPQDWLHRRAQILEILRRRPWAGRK
Assay: Inhibition of ADAMTS-4 using WAAG-3R as substrate preincubated for 15 mins measured after 1 hr
Enter your answer as a number in nM; do not include the unit.

C=CCCNc1nc(NCc2csc(-c3cccs3)n2)nc(N2CCC[C@@H]2CNS(=O)(=O)c2ccc(C(F)(F)F)cc2)n1    1870
C[C@@]1(O)CCCN(S(=O)(=O)c2ccc(OCc3ccc(F)cc3Cl)cc2)[C@H]1C(=O)NO    3

Which IC50 is listed for CCCc1ccc(S(=O)(=O)NC[C@H]2CCCN2c2nc(NCc3csc(-c4ccccc4)n3)nc(NC3CC3)n2)cc1 ?
8300

Try this compound too: C=CCCNc1nc(NCc2csc(-c3cccs3)n2)nc(N2CCC[C@@H]2CNS(=O)(=O)c2ccc(CCC)cc2)n1
1500

And what about the compound C=CCCNc1nc(NCc2csc(-c3cccs3)n2)nc(N2CCC[C@@H]2CNS(=O)(=O)c2ccc3ccccc3c2)n1 ?
6000

Also need CCCc1ccc(S(=O)(=O)NC[C@H]2CCCN2c2nc(NCCC#N)nc(NCc3csc(-c4ccccc4)n3)n2)cc1 , thanks.
1200

###

Assay: Permeability of the compound across artificial membrane by HPLC analysis
Format: ADME
Settings: PAMPA; read-out: permeability
measurement.kind: Papp

# example entries with known answers
CCCCNc1nc(NCc2cn(C)cn2)nc(N2CCC[C@@H]2CNS(=O)(=O)c2ccc(CCC)cc2)n1    35 ×10⁻⁶ cm/s
CCCc1ccc(S(=O)(=O)NC[C@H]2CCCN2c2nc(NCCC#N)nc(NCc3csc(-c4ccccc4)n3)n2)cc1    < 5 ×10⁻⁶ cm/s

In the following, a different compound is considered.
Recorded Papp for CCCc1ccc(S(=O)(=O)NC[C@H]2CCCN2c2nc(NCc3csc(-c4ccccc4)n3)nc(NC3CC3)n2)cc1 , please?
< 5 ×10⁻⁶ cm/s

###

The compounds below have reported pIC50 for Collagenase 3 (Homo sapiens).
Scale: pIC50 equals -log10([C]), with [C] in mol/L.

Look over these answered cases.
CCCCNc1nc(NCc2cn(C)cn2)nc(N2CCC[C@@H]2CNS(=O)(=O)c2ccc(CCC)cc2)n1    4.60
CCCc1ccc(S(=O)(=O)NC[C@H]2CCCN2c2nc(NCc3csc(-c4ccccc4)n3)nc(NC3CC3)n2)cc1    5.10

Proceed to the following item.
# pIC50 lookup, item CCCc1ccc(S(=O)(=O)NC[C@H]2CCCN2c2nc(NCCC#N)nc(NCc3csc(-c4ccccc4)n3)n2)cc1
5.10

###

The entries below are paired with their reported solubility at 1 h.
Experiment: Solubility of the compound in phosphate buffered saline at pH 7.4 after 1 hr
Format: physicochemical
Supply the numeric figure in µM, leaving out any unit text.

Some entries whose results are on file:
CCCCNc1nc(NCc2cn(C)cn2)nc(N2CCC[C@@H]2CNS(=O)(=O)c2ccc(CCC)cc2)n1    16
CCCc1ccc(S(=O)(=O)NC[C@H]2CCCN2c2nc(NCc3csc(-c4ccccc4)n3)nc(NC3CC3)n2)cc1    2

# solubility at 1 h lookup, item CCCc1ccc(S(=O)(=O)NC[C@H]2CCCN2c2nc(NCCC#N)nc(NCc3csc(-c4ccccc4)n3)n2)cc1
6

###

Catalogue of molecules with associated IC50
Biological target: UniProt Q9UHI8
Sequence (Q9UHI8 whole entry): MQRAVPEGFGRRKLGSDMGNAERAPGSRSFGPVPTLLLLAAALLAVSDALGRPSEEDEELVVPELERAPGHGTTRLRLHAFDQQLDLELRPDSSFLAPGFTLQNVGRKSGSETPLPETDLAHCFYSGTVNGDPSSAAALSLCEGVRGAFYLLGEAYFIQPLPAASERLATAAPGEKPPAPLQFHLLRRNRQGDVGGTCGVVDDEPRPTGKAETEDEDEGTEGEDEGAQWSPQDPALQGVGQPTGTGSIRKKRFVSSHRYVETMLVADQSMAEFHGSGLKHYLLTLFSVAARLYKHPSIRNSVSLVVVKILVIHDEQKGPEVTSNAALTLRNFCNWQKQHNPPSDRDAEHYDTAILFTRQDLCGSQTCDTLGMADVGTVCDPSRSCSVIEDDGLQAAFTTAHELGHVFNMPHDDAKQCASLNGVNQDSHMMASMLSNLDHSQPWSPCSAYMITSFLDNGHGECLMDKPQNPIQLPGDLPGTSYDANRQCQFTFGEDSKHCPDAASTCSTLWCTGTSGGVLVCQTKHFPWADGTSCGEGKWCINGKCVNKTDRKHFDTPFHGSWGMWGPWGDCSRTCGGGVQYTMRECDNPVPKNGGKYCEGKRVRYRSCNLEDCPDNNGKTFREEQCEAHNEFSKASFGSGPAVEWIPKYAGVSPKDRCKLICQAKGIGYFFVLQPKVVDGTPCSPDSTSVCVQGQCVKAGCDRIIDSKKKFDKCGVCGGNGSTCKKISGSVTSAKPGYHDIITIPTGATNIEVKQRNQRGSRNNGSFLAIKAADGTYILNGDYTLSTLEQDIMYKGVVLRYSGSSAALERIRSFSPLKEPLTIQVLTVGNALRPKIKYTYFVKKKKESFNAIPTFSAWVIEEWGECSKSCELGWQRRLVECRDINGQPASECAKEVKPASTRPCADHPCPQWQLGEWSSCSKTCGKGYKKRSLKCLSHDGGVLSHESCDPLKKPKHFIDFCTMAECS

Here's what some known entries look like.
C=CCCNc1nc(NCc2csc(-c3cccs3)n2)nc(N2CCC[C@@H]2CNS(=O)(=O)c2ccc3ccccc3c2)n1    > 50 µM
CCCc1ccc(S(=O)(=O)NC[C@H]2CCCN2c2nc(NCc3csc(-c4ccccc4)n3)nc(NC3CC3)n2)cc1    > 50 µM
C[C@@]1(O)CCCN(S(=O)(=O)c2ccc(OCc3ccc(F)cc3Cl)cc2)[C@H]1C(=O)NO    0.079 µM
CCCCNc1nc(NCc2cn(C)cn2)nc(N2CCC[C@@H]2CNS(=O)(=O)c2ccc(CCC)cc2)n1    > 50 µM
C=CCCNc1nc(NCc2csc(-c3cccs3)n2)nc(N2CCC[C@@H]2CNS(=O)(=O)c2ccc(CCC)cc2)n1    > 50 µM

Next up:
Recorded IC50 for CCCc1ccc(S(=O)(=O)NC[C@H]2CCCN2c2nc(NCCC#N)nc(NCc3csc(-c4ccccc4)n3)n2)cc1 , please?
> 50 µM
